src = paper PMC5916808

Tested on: GluN1/GluN2A, GluN1/GluN2B, GluN1/GluN2C, and GluN1/GluN2D NMDA receptors
Assay: Two-electrode voltage clamp, activity profile across GluN2 subunits
Assay type: cell-based, rat
Conditions: potentiation of response to maximal glutamate and glycine
OBSERVATION_TYPE: activity / subunit selectivity in words

- CCOc1ccc(OCC2c3ccc(OC(C)C)cc3CCN2C(=O)c2cccc(-c3ccccc3)c2)cc1 (stereo not drawn): inactive
- CCOc1ccc(OCC2c3ccc(OC(C)C)cc3CCN2C(=O)c2cccc(C)c2)cc1 (stereo not drawn): inactive
- CCOc1ccc(OCC2c3ccc(OC(C)C)cc3CCN2C(=O)c2ccc(Cl)c(Cl)c2)cc1 (stereo not drawn): active
- CCOc1ccc(OCC2c3ccc(OC(C)C)cc3CCN2C(=O)c2cccc(OC)c2)cc1 (stereo not drawn): inactive
- CCOc1ccc(OCC2c3ccc(OC(C)C)cc3CCN2C(=O)c2ccc(F)c(Cl)c2)cc1 (stereo not drawn): active
- CCOc1ccc(OCC2c3ccc(OC(C)C)cc3CCN2C(=O)c2ccc(F)c(F)c2)cc1 (stereo not drawn): active

###

Target: GluN1/GluN2D NMDA receptors (Rattus norvegicus, UniProt P35439+Q62645)
Sequence (Q62645 28-1323, other chains not shown): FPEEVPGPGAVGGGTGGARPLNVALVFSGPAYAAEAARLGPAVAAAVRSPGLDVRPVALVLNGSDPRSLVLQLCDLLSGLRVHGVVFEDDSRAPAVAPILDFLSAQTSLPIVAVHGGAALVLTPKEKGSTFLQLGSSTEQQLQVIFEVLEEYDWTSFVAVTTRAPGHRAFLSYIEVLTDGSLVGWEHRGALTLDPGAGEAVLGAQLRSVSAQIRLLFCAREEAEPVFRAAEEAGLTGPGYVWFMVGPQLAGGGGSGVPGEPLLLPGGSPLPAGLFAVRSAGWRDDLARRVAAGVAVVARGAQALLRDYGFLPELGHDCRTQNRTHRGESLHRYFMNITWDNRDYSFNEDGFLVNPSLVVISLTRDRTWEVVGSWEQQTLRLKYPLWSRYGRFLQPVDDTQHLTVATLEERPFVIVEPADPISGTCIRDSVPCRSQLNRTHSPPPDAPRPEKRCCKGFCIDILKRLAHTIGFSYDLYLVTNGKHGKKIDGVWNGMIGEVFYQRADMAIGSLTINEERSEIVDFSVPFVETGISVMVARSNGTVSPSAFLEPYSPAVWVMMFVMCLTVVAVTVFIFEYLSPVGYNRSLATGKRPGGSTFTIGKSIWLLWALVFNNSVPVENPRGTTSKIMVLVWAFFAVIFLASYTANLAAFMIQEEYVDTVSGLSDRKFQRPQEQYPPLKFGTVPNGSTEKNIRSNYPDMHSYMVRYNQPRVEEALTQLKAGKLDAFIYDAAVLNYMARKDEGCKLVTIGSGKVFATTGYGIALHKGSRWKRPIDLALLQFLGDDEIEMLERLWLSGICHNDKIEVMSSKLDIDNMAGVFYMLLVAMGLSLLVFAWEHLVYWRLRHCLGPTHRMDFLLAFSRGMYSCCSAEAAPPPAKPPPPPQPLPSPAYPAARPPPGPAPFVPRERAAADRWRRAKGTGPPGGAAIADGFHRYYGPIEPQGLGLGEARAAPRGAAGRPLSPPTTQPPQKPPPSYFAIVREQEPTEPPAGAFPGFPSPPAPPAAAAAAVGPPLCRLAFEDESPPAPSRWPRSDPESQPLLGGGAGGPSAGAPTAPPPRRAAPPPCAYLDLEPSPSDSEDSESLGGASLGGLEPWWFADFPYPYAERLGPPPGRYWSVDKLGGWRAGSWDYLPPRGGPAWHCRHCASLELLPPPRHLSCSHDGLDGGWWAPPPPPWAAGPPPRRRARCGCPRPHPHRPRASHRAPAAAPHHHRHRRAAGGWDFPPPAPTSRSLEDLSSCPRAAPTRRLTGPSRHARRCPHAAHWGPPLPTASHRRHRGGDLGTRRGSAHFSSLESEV
OBSERVATION_TYPE: EC50 (µM)

• COc1ccc(OCC2c3ccc(OC(C)C)cc3CCN2C(=O)c2cccc(F)c2)cc1 (stereo not shown) = 11

###

Test: Pharmacokinetics and brain penetration after IP dosing, LC/MS/MS
Type: in vivo, C57Bl/6 mice
Settings: C57Bl/6, mouse, plasma, ip, 10 mg/kg
OBSERVATION_TYPE: Tmax

* COc1ccc(OCC2c3ccc(OC(C)C)cc3CCN2C(=O)c2cccc(Cl)c2)cc1 (stereo not shown) | 2 h
